These measurements were taken from patent US7923446B2.

The following molecules are listed with their measured pIC50 values.
TESTED_TARGET: purified full-length human recombinant aggrecanase-1 (rAgg1) (Homo sapiens, UniProt O75173)
Construct: purified full-length human recombinant aggrecanase-1
Sequence (O75173 213-837): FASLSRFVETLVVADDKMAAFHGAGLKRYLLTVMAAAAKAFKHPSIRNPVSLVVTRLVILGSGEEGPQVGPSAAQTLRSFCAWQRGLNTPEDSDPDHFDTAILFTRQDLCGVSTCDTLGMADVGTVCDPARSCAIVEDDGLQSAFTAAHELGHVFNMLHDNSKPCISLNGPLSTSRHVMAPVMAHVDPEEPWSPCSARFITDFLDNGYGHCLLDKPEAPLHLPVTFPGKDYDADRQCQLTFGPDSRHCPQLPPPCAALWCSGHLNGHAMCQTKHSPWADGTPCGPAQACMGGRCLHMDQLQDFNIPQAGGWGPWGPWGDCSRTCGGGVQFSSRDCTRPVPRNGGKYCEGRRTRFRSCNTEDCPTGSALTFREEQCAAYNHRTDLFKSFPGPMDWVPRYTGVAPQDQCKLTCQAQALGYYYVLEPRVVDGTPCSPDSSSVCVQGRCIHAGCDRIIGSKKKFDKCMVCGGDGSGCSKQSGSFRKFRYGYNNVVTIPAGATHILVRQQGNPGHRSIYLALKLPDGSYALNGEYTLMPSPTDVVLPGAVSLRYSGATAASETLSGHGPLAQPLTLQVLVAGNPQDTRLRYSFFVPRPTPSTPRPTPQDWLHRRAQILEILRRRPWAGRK
ASSAY_NAME: Aggrecanase-1 FRET Assay
Assay type: biochemical
API: returns pIC50 as number; meaning -log10 of concentration in mol/L.

CC(C)[C@@H](NS(=O)(=O)c1ccc(-c2ccc(OC(=O)Nc3ccc4ccccc4c3)cc2)cc1)C(=O)O [Example 6C]; 5.96
CC(C)[C@@H](NS(=O)(=O)c1ccc(-c2ccc(OC(=O)Nc3ccc(F)cc3)cc2)cc1)C(=O)O [Example 6A]; 5.44
CC(C)[C@@H](NS(=O)(=O)c1ccc(-c2ccc(OC(=O)Nc3cc4ccccc4o3)cc2)cc1)C(=O)O [Example 6S]; 5.35

Proceed to the following item.
Ask: Bench note: what pIC50 did CC(C)[C@@H](NS(=O)(=O)c1ccc(-c2ccc(OC(=O)Nc3ccc(Oc4ccccc4)cc3)cc2)cc1)C(=O)O [Example 6B] show?
Reply: 6.22
